# assayed_target: Env of HIV-1 strain 3016.v5.c45 (HIV-1)
# protocol_notes: cell-based or functional assay
result_type: neutralization IC50 (µg/mL)
Please respond with the number in µg/mL and leave the unit unwritten.

Req: Kindly indicate its recorded neutralization IC50. Item: γ46κ11 (antibody, V domains shown) VH: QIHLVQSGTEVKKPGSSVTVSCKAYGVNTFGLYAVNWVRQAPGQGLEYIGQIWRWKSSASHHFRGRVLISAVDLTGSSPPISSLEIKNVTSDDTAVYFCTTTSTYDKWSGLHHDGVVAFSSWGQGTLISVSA VL: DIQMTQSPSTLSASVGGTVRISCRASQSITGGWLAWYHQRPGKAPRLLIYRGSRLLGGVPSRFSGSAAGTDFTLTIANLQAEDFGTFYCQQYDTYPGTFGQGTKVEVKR
Resp: 1.93

Source: patent US20180171001A1
